molecular target: EGFR L858R/C797S (Homo sapiens, UniProt P00533, C797S/L858R); assay: Biochemical EGFR kinase assay (Lance Ultra TR-FRET), double mutant L858R/C797S; settings: IC50 L858R/C797S (nM) 100 μM ATP, 100 μM ATP
Sequence (P00533 25-1210 C797S/L858R): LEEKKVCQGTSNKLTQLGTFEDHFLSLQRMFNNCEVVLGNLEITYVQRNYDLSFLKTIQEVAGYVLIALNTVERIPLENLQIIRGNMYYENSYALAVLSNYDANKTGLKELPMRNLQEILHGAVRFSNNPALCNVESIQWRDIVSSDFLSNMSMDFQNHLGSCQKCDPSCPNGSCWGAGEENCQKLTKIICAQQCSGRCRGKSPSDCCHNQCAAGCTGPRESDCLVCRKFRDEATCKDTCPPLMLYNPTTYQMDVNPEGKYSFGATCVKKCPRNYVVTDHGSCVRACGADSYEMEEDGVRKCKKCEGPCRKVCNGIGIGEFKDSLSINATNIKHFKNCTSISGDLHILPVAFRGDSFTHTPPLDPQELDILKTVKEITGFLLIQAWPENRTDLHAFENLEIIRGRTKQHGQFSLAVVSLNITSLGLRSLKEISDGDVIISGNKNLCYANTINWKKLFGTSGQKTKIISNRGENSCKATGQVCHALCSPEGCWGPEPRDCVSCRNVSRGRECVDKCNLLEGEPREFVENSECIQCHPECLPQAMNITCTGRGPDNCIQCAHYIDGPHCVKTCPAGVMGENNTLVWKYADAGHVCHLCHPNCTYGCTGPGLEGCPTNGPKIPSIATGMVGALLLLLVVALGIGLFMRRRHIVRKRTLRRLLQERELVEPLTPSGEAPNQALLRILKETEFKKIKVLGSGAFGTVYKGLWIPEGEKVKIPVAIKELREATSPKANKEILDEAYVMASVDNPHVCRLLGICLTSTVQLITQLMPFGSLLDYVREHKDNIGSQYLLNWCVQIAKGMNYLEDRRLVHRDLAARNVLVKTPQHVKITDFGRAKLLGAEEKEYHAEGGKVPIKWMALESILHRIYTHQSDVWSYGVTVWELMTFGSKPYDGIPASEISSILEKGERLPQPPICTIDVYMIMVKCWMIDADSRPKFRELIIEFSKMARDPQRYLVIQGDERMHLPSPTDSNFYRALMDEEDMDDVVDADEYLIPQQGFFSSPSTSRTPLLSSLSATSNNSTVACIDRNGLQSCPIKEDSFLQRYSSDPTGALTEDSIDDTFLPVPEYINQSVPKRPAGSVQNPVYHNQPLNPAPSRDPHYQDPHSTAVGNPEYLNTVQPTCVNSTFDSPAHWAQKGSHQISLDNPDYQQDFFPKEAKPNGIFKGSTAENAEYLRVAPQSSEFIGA
quantity-kind: IC50 (nM)

Solved cases below.
Look at this molecule and give its reported IC50. CC(C)(O)[C@H]1CC[C@@H](Nc2cc(Nc3ccnc(-c4cnn(S(=O)(=O)C5CC5)c4)n3)ncc2-c2ccc(N3CCOCC3)cn2)CC1 [Example 45] 4.2

Look at this molecule and give its reported IC50. C[C@]1(O)CC[C@@H](Nc2cc(Nc3ccnc(-c4cnn(S(=O)(=O)C5CC5)c4)n3)ncc2-c2cc(CN3CCC(F)(F)CC3)ccn2)CC1 [Example 112] 6.9

Look at this molecule and give its reported IC50. CN(C)CCOc1cnc(-c2cnc(Nc3ccnc(-c4cnn(S(=O)(=O)C5CC5)c4)n3)cc2N[C@H]2CC[C@@H](C(C)(C)O)CC2)cn1 [Example 117] 0.5

Look at this molecule and give its reported IC50. CC(C)(O)c1cc(-c2cnc(Nc3ccnc(-c4cnn(S(=O)(=O)C5CC5)c4)n3)cc2N[C@H]2CC[C@@H](CO)CC2)ncc1F [Example 105] 5.4

Look at this molecule and give its reported IC50. CC(C)(O)c1cnc(-c2cnc(Nc3ccnc(-c4cnn(S(=O)(=O)C5CC5)c4)n3)cc2N[C@H]2CC[C@@](C)(O)CC2)cn1 [Example 118] 0.7

Look at this molecule and give its reported IC50. O=S(=O)(C1CC1)n1cc(-c2nccc(Nc3cc(N[C@H]4CC[C@H](CCO)CC4)c(-c4cc(C(F)F)ccn4)cn3)n2)cn1 [Example 96] 2220

Look at this molecule and give its reported IC50. O=S(=O)(C1CC1)n1cc(-c2nccc(Nc3cc(NC4CCC(CO)CC4)c(-c4ccc(N5CCOCC5)cn4)cn3)n2)cn1 (stereo not drawn) [Example 57] 4.5

Look at this molecule and give its reported IC50. C[C@]1(O)CC[C@@H](Nc2cc(Nc3ccnc(-c4cnn(S(=O)(=O)C5CC5)c4)n3)ncc2-c2ccc(N3CCC(F)(F)CC3)nn2)CC1 [Example 68] 124

Look at this molecule and give its reported IC50. O=S(=O)(C1CC1)n1cc(-c2nccc(Nc3cc(N[C@H]4CC[C@@H](CCO)CC4)c(-c4ccc(C(F)F)cn4)cn3)n2)cn1 [Example 94] 170

Look at this molecule and give its reported IC50. CC(C)(O)c1ccnc(-c2cnc(Nc3ccnc(-c4cnn(S(=O)(=O)C5CC5)c4)n3)cc2N[C@H]2CC[C@@H](C(C)(C)O)CC2)c1 [Example 109] 11.1

[1] C[C@]1(O)CC[C@@H](Nc2cc(Nc3ccnc(-c4cnn(S(=O)(=O)C5CC5)c4)n3)ncc2-c2ccc(CN3CCOCC3)cn2)CC1 [Example 32]
[2] O=S(=O)(C1CC1)n1cc(-c2nccc(Nc3cc(N[C@H]4CC[C@@H](CO)CC4)c(-c4ccc(N5CCCC5)cn4)cn3)n2)cn1 [Example 81]
[3] CN(C)C[C@H]1CC[C@@H](Nc2cc(Nc3ccnc(-c4cnn(S(=O)(=O)C5CC5)c4)n3)ncc2-c2cnc(N3CCC(F)(F)CC3)cn2)CC1 [Example 74]
[4] C[C@]1(O)CC[C@@H](Nc2cc(Nc3ccnc(-c4cnn(S(=O)(=O)C5CC5)c4)n3)ncc2-c2ccc(N3CC4(COC4)C3)nn2)CC1 [Example 67]
[5] CN1CCN(Cc2cnc(-c3cnc(Nc4ccnc(-c5cnn(S(=O)(=O)C6CC6)c5)n4)cc3N[C@H]3CC[C@@](C)(O)CC3)cn2)CC1 [Example 62]
Please order the records by their reported IC50, lowest number first. Put the labels in the order asked and list them. 5, 1, 4, 2, 3
(5: 0.9 nM, 1: 1.9 nM, 4: 4.5 nM, 2: 13 nM, 3: 43.9 nM)

[A] CN(C)Cc1cccc(-c2cnc(Nc3ccnc(-c4cnn(S(=O)(=O)C5CC5)c4)n3)cc2N[C@H]2CC[C@@](C)(O)CC2)n1 [Example 30]
[B] O=S(=O)(C1CC1)n1cc(-c2nccc(Nc3cc(N[C@H]4CC[C@@H](CO)CC4)c(-c4cc(C(F)F)ccn4)cn3)n2)cn1 [Example 77]
# query: argmin of IC50 over A and B Write the label of whichever entry you select. A
(A: 2 nM, B: 13 nM)

[A] C[C@]1(O)CC[C@@H](Nc2cc(Nc3ccnc(-c4cnn(S(=O)(=O)C5CC5)c4)n3)ncc2-c2ccc(N3CCOCC3)nn2)CC1 [Example 43]
[B] O=S(=O)(C1CC1)n1cc(-c2nccc(Nc3cc(N[C@H]4CC[C@@H](CCO)CC4)c(-c4cc(C(F)F)ccn4)cn3)n2)cn1 [Example 97]
[C] C[C@]1(O)CC[C@@H](Nc2cc(Nc3ccnc(-c4cnn(S(=O)(=O)C5CC5)c4)n3)ncc2-c2ccc(C(F)(F)F)nn2)CC1 [Example 51]
List items by IC50 in falling order. Put the labels in the order asked and list them. B, C, A
